Tested on: epithelial carcinoma A431 cell line
Assay: MTT Cell Proliferation Assay, A431 cells
Format: cell-based
Details: Homo sapiens, A-431, A431 cells, first value of cell; read-out: MTT Assay IC50(A431/MDBK): A431
Source text: The following example describes the MTT Cell Proliferation Assay. The MTT Cell Proliferation Assay is a colorimetric assay system that measures the reduction of the tetrazolium salt MTT (3-(4,5-dimethylthiazol-2-yl)-2,5-diphenyltetrazolium bromide) into insoluble formazan crystals, produced by the mitochondria of viable cells. […] The color can then be quantified by spectrophotometric means. […] Plates were read in a Tecan Sunrize UV plate reader, at 560 nm. […]
Counter-ions that a name gives are not always drawn.
reported-property: IC50 (µM)
One number for each entry, in µM.

Below: 4 compounds and their reported IC50.
Ask | Provide measured IC50 value, entry: COc1cccc2c(C)nc(Nc3nc(-c4ccccc4)cc(=O)[nH]3)nc12 [compound 11741]
Reply | 2.44

Ask | Provide measured IC50 value, entry: C=CCc1c(C)nc(Nc2nc(C)c3cc(CC)ccc3n2)[nH]c1=O [compound 12739]
Reply | 15.9

Ask | Provide measured IC50 value, entry: Cc1cc(C)c2nc(Nc3nc(CSc4nnc(C)s4)cc(=O)[nH]3)nc(C)c2c1 [compound 11476]
Reply | 17.9

Ask | Provide measured IC50 value, entry: COc1cccc(-c2cc(=O)[nH]c(Nc3nc(C)c4cccc(OC)c4n3)n2)c1 [11513 + TFA]
Reply | 6.73

Quick one: give me IC50 for each item below, same order please.
1. COc1ccc2nc(Nc3nc(C)c(Cc4cccc(Cl)c4)c(=O)[nH]3)nc(C)c2c1 [11742 + TFA]
2. Cc1ccc2nc(Nc3nc(CSc4ncccn4)cc(=O)[nH]3)nc(C)c2c1 [compound 11751]
3. COC(=O)Cc1cc(=O)nc(Nc2nc(C)c3ccccc3n2)[nH]1 [compound 11609]

Reply |
[16.1, 9.88, 36]

Quick one: give me IC50 for each item below, same order please.
1. CCOC(=O)c1c(N)nc(Nc2nc(C)c3cc(C)ccc3n2)nc1-c1ccccc1 [compound 11812]
2. CCCCCC1C(=O)N=C(Nc2nc(C)c3ccc(CC)cc3n2)N=C1C (stereo not drawn) [12214 + TFA]
3. Cc1cc(C)nc(Nc2nc(N)c3ccccc3n2)n1 [compound 11829]
4. CCOc1ccc2nc(Nc3nc(C)cc(-c4ccccc4)n3)nc(C)c2c1 [12688 + TFA]
5. Cc1cc(C)nc(Nc2nc(-c3ccccc3)c3ccc(Cl)cc3n2)n1 [compound 11636]

Reply |
1: 14.7; 2: 32.4; 3: 19.6; 4: 5.04; 5: 26.8

Quick one: give me IC50 for each item below, same order please.
1. COc1cccc2c(C)nc(Nc3nc(C)cc(=O)[nH]3)nc12 [11772 + TFA]
2. Cc1ccc2c(C)nc(Nc3nc(CCC(C)C)cc(=O)[nH]3)nc2c1 [11783 + TFA]

Reply |
9.75
18.2

Quick one: give me IC50 for each item below, same order please.
1. COc1ccc2nc(Nc3nc(CSc4nnnn4-c4ccccc4)cc(=O)[nH]3)nc(C)c2c1 [compound 11448]
2. Cc1nc(Nc2nc(C(C)C)cc(=O)[nH]2)nc2c(C)cccc12 [compound 12777]
3. Cc1nc(Nc2nc(=O)c3c([nH]2)CCCC3)nc2c(C)cccc12 [11436 + TFA]
4. COc1ccc(-c2cc(=O)[nH]c(Nc3nc(C)c4ccc(C)cc4n3)n2)cc1OC [11800 + TFA]

Reply |
1: 3.45; 2: 12.8; 3: 5.86; 4: 6.71
